Reference source: patent US11834432B2

target: FGFR1 kinase domain recombinant protein (Homo sapiens (Human)); experiment: Inhibition of receptor tyrosine kinase FGFR1 activity (ELISA); format: biochemical; conditions: 1 h; read-out: Inhibition ratio (%) @ 0.1 μM
Sequence (P11362 478-767): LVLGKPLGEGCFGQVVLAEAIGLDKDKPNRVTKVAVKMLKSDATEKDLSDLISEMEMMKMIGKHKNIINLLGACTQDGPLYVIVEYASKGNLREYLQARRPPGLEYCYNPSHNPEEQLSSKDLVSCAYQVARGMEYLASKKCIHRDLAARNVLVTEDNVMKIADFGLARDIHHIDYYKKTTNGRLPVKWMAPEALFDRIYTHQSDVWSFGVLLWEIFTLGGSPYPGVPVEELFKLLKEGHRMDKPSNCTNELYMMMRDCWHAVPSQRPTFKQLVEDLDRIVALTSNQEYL
Classify by measured inhibition at 0.1 µM: criterion met if it is equal to or exceeds 80%, criterion not met if it is smaller.

Study these solved cases before continuing.
INSERT INTO assay_data (molecule, assigned_label) VALUES
  ('CNC(=O)c1cccc2cc(Oc3ccnc(NC(=O)c4ccc(N5C[C@@H](C)N[C@@H](C)C5)cc4OC)c3)ccc12 [Compound S14]', 'criterion not met'),
  ('CNC(=O)c1cccc2cc(Oc3ccnc(NC(=O)c4ccc(CN5CCN(C)CC5)c(C(F)(F)F)c4)c3)ccc12 [Compound S12]', 'criterion not met'),
  ('CNC(=O)c1cccc2cc(Oc3ccnc(NC(=O)c4cnn(CCO)c4)c3)ccc12 [Compound S19]', 'criterion met');

Does the reported inhibition at 0.1 µM for CNC(=O)c1cccc2cc(Oc3ccnc(NC(=O)c4ccc(N5CCN(CCO)CC5)cc4)c3)ccc12 [Compound S11] fall at or above the 80% mark? criterion met

Field entry: CNC(=O)c1cccc2cc(Oc3ccnc(NC(=O)c4ccc(OCC5(N)CC5)cc4)c3)ccc12 [Compound S3] criterion met

Field entry: CNC(=O)c1cccc2cc(Oc3ccnc(NC(=O)c4csc(N5CCN(C)CC5)n4)c3)ccc12 [Compound S17] criterion not met

Field entry: CNC(=O)c1cccc2cc(Oc3ccnc(NC(=O)c4ccc(N5CCN(C)CC5)cc4)c3)ccc12 [Compound S5] criterion met

Field entry: CNC(=O)c1cccc2cc(Oc3ccnc(NC(=O)c4ccc(OCCN5CC(F)C5)cc4)c3)ccc12 [Compound S1] criterion not met

Field entry: COC(=O)c1cccc2cc(Oc3ccnc(NC(=O)c4ccc(N5C[C@@H](C)N[C@@H](C)C5)cc4)c3)ccc12 [Compound S24] criterion met

Field entry: CNC(=O)c1cccc2cc(Oc3ccnc(NC(=O)c4ccc(N5C[C@@H](C)N[C@@H](C)C5)cc4C)c3)ccc12 [Compound S15] criterion not met

Field entry: CNC(=O)c1cccc2cc(Oc3ccnc(NC(=O)c4ccc(N5C[C@@H](C)N[C@@H](C)C5)cc4F)c3)ccc12 [Compound S13] criterion not met

Field entry: CNC(=O)c1cccc2cc(Oc3ccnc(NC(=O)c4cnc(N5C[C@@H](C)N[C@@H](C)C5)nc4)c3)ccc12 [Compound S16] criterion not met

Field entry: CNC(=O)c1cccc2cc(Oc3ccnc(NC(=O)c4ccc(NCC5(O)CCOCC5)cc4)c3)ccc12 [Compound S23] criterion met
